B1: PPP2R2C (parent)
chain: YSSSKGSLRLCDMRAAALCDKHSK

Variants of: B1
Assay: protein stability index of a GFP-peptide fusion (GPS, HEK-293T) (PSI 1-6); higher = more stable;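 also: lentivirally expressed fusions sorted by FACS into six bins by GFP to DsRed ratio, PSI derived from sequencing read proportions per bin multiplied by bin number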
Settings: c terminus: a fixed tail appended
# protein stability index >= 2 gives criterion met, anything below gives criterion not met

>>> classification("L10G")
"criterion met"
>>> classification("D20P")
"criterion met"
>>> classification("D12M")
"criterion not met"
>>> classification("A15L")
"criterion not met"
>>> classification("R14K")
"criterion not met"
>>> classification("D20W")
"criterion met"
>>> classification("R9E")
"criterion met"
>>> classification("Y1I")
"criterion met"
>>> classification("A17I")
"criterion not met"
>>> classification("S4I")
"criterion met"
>>> classification("Y1L")
"criterion met"
>>> classification("A16Y")
"criterion not met"
>>> classification("A16H")
"criterion met"
>>> classification("S7G")
"criterion met"
>>> classification("H22D")
"criterion not met"
>>> classification("A17C")
"criterion met"
>>> classification("D12T")
"criterion met"
>>> classification("S7M")
"criterion not met"
>>> classification("A16E")
"criterion met"
>>> classification("G6A")
"criterion not met"
>>> classification("K5A")
"criterion not met"
>>> classification("H22C")
"criterion met"
>>> classification("S4C")
"criterion not met"
>>> classification("S3M")
"criterion met"
>>> classification("C11Y")
"criterion met"
>>> classification("C19F")
"criterion met"
>>> classification("A16D")
"criterion met"
>>> classification("K5F")
"criterion not met"
>>> classification("K5C")
"criterion not met"
>>> classification("M13K")
"criterion met"
>>> classification("A15T")
"criterion met"
>>> classification("R14D")
"criterion not met"
